Target Of Assay: APOL1 (Homo sapiens, UniProt O14791)
Sequence (O14791 whole entry S342G/I384M, form open): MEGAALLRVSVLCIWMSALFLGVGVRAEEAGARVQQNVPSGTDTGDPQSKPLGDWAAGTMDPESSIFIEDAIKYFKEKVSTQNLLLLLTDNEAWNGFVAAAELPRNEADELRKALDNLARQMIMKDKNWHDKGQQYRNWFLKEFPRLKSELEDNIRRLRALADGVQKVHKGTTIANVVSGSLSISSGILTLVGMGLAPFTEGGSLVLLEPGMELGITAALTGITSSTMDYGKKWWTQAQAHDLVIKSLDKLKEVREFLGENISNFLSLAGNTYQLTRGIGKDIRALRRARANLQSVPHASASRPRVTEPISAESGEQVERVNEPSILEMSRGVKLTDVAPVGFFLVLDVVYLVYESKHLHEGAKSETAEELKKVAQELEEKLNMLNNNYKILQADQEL
Assay Procedure: MultiTox-Fluor Multiplex Cytotoxicity Assay in tet-inducible APOL1 T-REx-HEK293 cells
Format: cell-based
Test Settings: tet-inducible transgenic APOL1 T-REx-HEK293 cell lines, 50 ng/mL tet, 24 hours, ratio of dead to live cells; read-out: IP50 (nM) (i.e., IC50 for cell proliferation)
Measured Quantity: IC50

According to the records, this molecule C[C@H]1C[C@@]2(C[C@@H](c3cn(C)nn3)N1)OCC(O)c1ccc(Cl)cc12 (stereo partly shown) [Compound 30] displays IC50 of 50 to 500 nM

IC50 measured on C[C@H]1CC2(C[C@@H](c3cn(C)nn3)N1)OC(C(N)=O)c1ccc(Cl)cc12 (stereo partly shown) [Compound 41] = < 50 nM

IC50 in this record for C[C@H]1C[C@@]2(C[C@@H](c3cn(C)nn3)N1)OCCc1cc(O)c(Cl)cc12 : > 500 nM

# IC50 of C[C@H]1C[C@@]2(C[C@@H](c3cn(C)nn3)N1)OC[C@H](O)c1cc(C(F)(F)F)ccc12 = < 50 nM

Lookup result for C[C@H]1CC2(C[C@@H](c3cn(C)nn3)N1)OC(C(N)=O)c1ccc(Cl)cc12 (single isomer, unassigned) [Compound 42] ; measured IC50: 50 to 500 nM

Entry C[C@H]1C[C@@]2(C[C@@H](c3cn(C)nn3)N1)OC[C@H](O)c1cc(Cl)ccc12 , IC50 reported as < 50 nM

Just so you know, measured IC50 for C[C@H]1C[C@@]2(C[C@@H](c3cn(C)nn3)N1)OCCc1cc(C(F)(F)F)ccc12 came out at < 50 nM
